Here, molecules appear alongside log10(Ki) reported for Carbonic anhydrase 12 (Homo sapiens, UniProt O43570) in the literature.
// stored as log10 of Ki expressed in nM

Sure, the documented log10(Ki) for COc1ccc(C)cc1NC(=O)Nc1ccc2c(c1)B(O)OC2 is 1.84

Sure, the documented log10(Ki) for CC(=O)N1N=C(c2ccccc2)CC1c1ccc(OS(N)(=O)=O)cc1 (configuration not stated) is 1.03

Sure, the documented log10(Ki) for C#CCN1C(=O)c2ccccc2S1(=O)=O is 2.76

Sure, the documented log10(Ki) for Nc1ccc(S(N)(=O)=O)cc1F is 0.04

Sure, the documented log10(Ki) for NS(=O)(=O)c1ccccc1N1C(=O)c2c(Br)c(Br)c(Br)c(Br)c2C1=O is 2.29

Sure, the documented log10(Ki) for CCN(CCC(=O)N(CCc1ccc(S(N)(=O)=O)cc1)Cc1ccccc1)Cc1ccccc1 is 1.96

Sure, the documented log10(Ki) for CC(=O)N1N=C(c2ccc(Cl)cc2)CC1c1cccc(OS(N)(=O)=O)c1 (configuration not stated) is 1.35

Sure, the documented log10(Ki) for O=C1c2ccccc2S(=O)(=O)N1Cc1ccccc1Br is 1.40

Sure, the documented log10(Ki) for O=S(=O)(N1CCOCC1)N1CCOCC1 is 3.96

Sure, the documented log10(Ki) for NS(=O)(=O)c1ccc(OCCN2CCOCC2)cc1 is 1.03

Sure, the documented log10(Ki) for NS(=O)(=O)c1ccc(-c2ccc(C(=O)NCCO)cc2)cc1 is 1.42

Sure, the documented log10(Ki) for Cc1ccc(-c2cn(-c3ccc(S(N)(=O)=O)cc3)nn2)cc1 is 0.56
